- protocolText: yeast display, Sf9 membrane polyspecificity reagent, FACS + sequencing; frameworks hold sequencing errors
measure: polyreactivity (PSR sort gate)

{"sequenceCode": "QVQLEESGGGLVQAGGSLRLSCAASGRSFYGNAMGWYRQAPGKERELVAASSSRSSSTSYADSVKGRFTISRANAKNTVYLLMNSLKPEDTAVYYCATRYGSRTWYGYNYWGQATQVTVSS", "testResult": "high polyreactivity"}
{"sequenceCode": "QVQLVESGGGLVRARGSLRLSWAASGNTFSSNAMGWYRQAPGKERELVAGITKSGGRTYYADSVKGSFTISRDNAKNTVYLQMNSLKPEDTAVYYCNRRACPYSIPYYYWGQGTQVTVSS", "testResult": "high polyreactivity"}

###

- protocolText: yeast display, Sf9 membrane polyspecificity reagent, FACS + sequencing; frameworks hold sequencing errors
measure: polyreactivity (PSR sort gate)

Consider the worked cases shown below.
{"sequenceCode": "QVQLVESGGGLVQAGGSLRLSCAASGSTFGDYAMGGYRQAPGKERELVAANDQNGGSTYYADSVKGRITISRDNAKNTVYLQMNSLIPEDTAVYYCAAESIYDWYDYGGQGTQVTVSS", "measure": "polyreactivity (PSR sort gate)", "testResult": "low polyreactivity"}
{"sequenceCode": "QVQLVESGGGLVQAGGSLRLSCAASGIIFIFYDMGWSRQAPGKERELVATITSGTNTYADSVKGRFTISRDNAKNTVYLQMNSLKPEDTAVYSCAAGFSPASQLDYWGQGTQVTVSS", "measure": "polyreactivity (PSR sort gate)", "testResult": "low polyreactivity"}
{"sequenceCode": "QDQLVESGGGLVQAGGSLRLSCAASGFIVHRYVMGWYRQAPGKERELVAAISSGGSTNYADSVKGRFTISRDNAKNSVYLQMTSLKPEDTAVYYCAADGFYYRNWGRFRYYYWGQGTQVNVSS", "measure": "polyreactivity (PSR sort gate)", "testResult": "low polyreactivity"}
{"sequenceCode": "QVQLVESGGGLDQAGGSLRLSCAASGFTFYPNAMGWYRQAPGKERELVAAINSGGSTYYADSVKGRFTISRDNAKNTVYLQMNSLKPEDTAVYYCAAYGKRGAVAFYYWGQGTQVTVSS", "measure": "polyreactivity (PSR sort gate)", "testResult": "high polyreactivity"}
{"sequenceCode": "QVQLVESGVGLVQAGGSLRLSSAASGSTFGYYTMGWYRQAPGKERELVASISWSGASTHYADSVKGRFTISRDNAKNTVYLQMNSLKPDDTEVYYCAADWQQQPGTNSFDYWGQGTQVTVSS", "measure": "polyreactivity (PSR sort gate)", "testResult": "low polyreactivity"}
{"sequenceCode": "QVQLVESGGGLVQAGGSLRLSCAASGRIFYFYAMGWYRQAPGKEMELVAAISTSGGSTYYADSVKGRFTISRDNAKNTVYLQMNSLKPEDTAVYYCNADGYQSRWYYYNYDYWGQGTQVTVSS", "measure": "polyreactivity (PSR sort gate)", "testResult": "low polyreactivity"}
{"sequenceCode": "QVQLVESGGGLVQAGGSLRLRCAASGWYRQAAGKERELVAAITYSGGSTYYADSVKGRFTISRDNAKKTVYLQMNSLKPEDTAVYYCAAQPRVDYEFPYRYGYWGLGTQVTVSS", "measure": "polyreactivity (PSR sort gate)", "testResult": "low polyreactivity"}
{"sequenceCode": "QVQLVESGGGLVQAGGSHRLSCAACGYIFFYNAMGWYRQAPGKERELVASITYRGGSTYYADSVKGRFTISRDNAKNSVYLQMNSLKPEDTAVYYCNVDGGGPLGPQGFPFDYWGQGTQVTVSS", "measure": "polyreactivity (PSR sort gate)", "testResult": "low polyreactivity"}
{"sequenceCode": "QVQLVESGGGLVQAGGSLRLSCAASGSTFARNAMGWYRQAPGKERELVAAITTRGSSTYYADSVKGRFTISRDNAKNTVYLQMNSLKPEDTAVYYCAARTQAPLGKYGYWGQGTQVTVSS", "measure": "polyreactivity (PSR sort gate)", "testResult": "high polyreactivity"}
{"sequenceCode": "QVQLVESGGGLVQAGGSLRLSCAASGFTINFYAMGWYRQAPGKERELVAAITASGGGSTYYADSVKGRFTISRDNAKNTVYLQMNSLKPEDTAVYYCNADYTGSFYTYDYWGQGTQVTVSS", "measure": "polyreactivity (PSR sort gate)", "testResult": "low polyreactivity"}

Shift focus to the following entry.
Challenge: // polyreactivity (PSR sort gate) lookup, key: QVQLVESGGGLVQAGGSLRFSCAASGNILPSNAMGWYRQAPGKERELVAVINSSGNTNYADSVKGRFTISRDNAKKTVYLQMNSLKPEDTAVYYCVIWFRYDRARKLYYWGQGTQVTVSS
Response given: high polyreactivity
